B1: LINE1-full (parent)
chain: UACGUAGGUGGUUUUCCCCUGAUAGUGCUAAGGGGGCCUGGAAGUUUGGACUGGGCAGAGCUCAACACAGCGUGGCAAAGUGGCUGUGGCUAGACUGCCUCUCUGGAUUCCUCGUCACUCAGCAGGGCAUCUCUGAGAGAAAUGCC

variants of: B1; experiment: self-cleavage, relative activity (ratio to wild type); higher = more cleavage; in vitro, sequencing; the parent is a self-cleaving ribozyme
Mark yes (1) for reported self-cleavage of 0.9 or greater; mark no (0) for anything smaller.

biosequence | classification
UACGUAGGUGGUUUUCCCCUGACAGUGCUAAGGGGGCCUGGAAGUUUGGUCUGGGCAGAGCUCAACACAGCGUGGCAAAGUGGCUGUGGCUAGACUGCCUCUCUGGAUUCCUCGUCACUCAGCAGGGCAUCUCUGAGAGAAAUGCC | yes (1)
UACGUAGGUGGCUUUCCCCUGAUAGUGCUAAGGGGGCCUGGAAGUUUGGACUGGGCAGAGCUCAACACAGCGUGGCAAAGAGGCUGUGGCUAGACUGCCUCUCUGGAUUCCUCGUCACUCAGCAGGGCAUCUCUGAGAGAAAUGCC | yes (1)
UACGUAGGUGGUUUUCCCCUGAUAGUGCUAAGGGGGCCUGGAAGUUUGGACUGGGCAGAGCUCAACACAGCGUGGCAAAGUGGCUGUGGCUUGACUGCCUCUCCGGAUUCCUCGUCACUCAGCAGGGCAUCUCUGAGAGAAAUGCC | yes (1)
UACGUAGGUGGUUUUCCCCUGAUAGUGCUAAGGGGGCCUGGAAGUUUGGACUGGGCAGAGCUCAACAUAGCGUGGCAAAGUGGCUGUGGCUAGACUGCCUCUCUGGAUUCCCCGUCACUCAGCAGGGCAUCUCUGAGAGAAAUGCC | no (0)

Task: Record UACGUAGGUGGUUUUCCCCUGAUAGUGCUAAGGGGGCCUGGAAGUUUGGACUGGGCAGAGCUCAACACAGCGUGGCAAAGUGGCUGUGGCUAGACUGCCCCUCUGGAUUCCUCGACACUCAGCAGGGCAUCUCUGAGAGAAAUGCC ; criterion: self-cleavage no lower than 0.9. Met?
Output: yes (1)

Task: // next record UACGUAGGUGGUUUUCCCUUGAUAGUGCUAAGGGGGCCUGGAAGUUUGGACUGGGCAGAGCUCAACACAGCGUGGCAAAGUGGCUGUGGCUAAACUGCCUCUCUGGAUUCCUCGUCACUCAGCAGGGCAUCUCUGAGAGAAAUGCC
Output: no (0)

Task: // next record UACGUAGGUGGUUUUCCCCUGGUAGUGCUAAGGGGGCCUGGAAGUUUGGACUGGGCAGAGCUCAACACAGCGUGGCAAAGUGGCGGUGGCUAGACUGCCUCUCUGGAUUCCUCGUCACUCAGCAGGGCAUCUCUGAGAGAAAUGCC
Output: no (0)

Task: // next record UACGUAGGUGGUUUUCCCCCGAUAGUGCUAAGGGGGCCUGGAAGUUUGGACUGGGCAGAGCUCAACACAGCGUGGCAAAGUGGCUGUGGCUAGACUGCCUCUCUGGAUUCCUCGUCCCUCAGCAGGGCAUCUCUGAGAGAAAUGCC
Output: yes (1)

Task: // next record UACGUAGGUGGGUUUCCCCUGAUAGUGCUAAGGGGGCCUGGAAGUUUGGACUGGGCAGAGCUCAACACAGCGUGGCAAAGUGGCUGUGGCUAGACUGCCUCUCUGGAUUCCUCGUCACUCAGCAGGGCAUCUCUGAGAGAAGUGCC
Output: no (0)

Task: // next record UACGUAGGUGGUUUUCCCCUGAUAGUGCUAAGGGGGCCUGGAAGUUGGGACUGGGCAGAGCUCAACACAGCGUGGCAAAGUGGCUGUGGCUAGACUACCUCUCUGGAUUCCUCGUCACUCAGCAGGGCAUCUCUGAGAGAAAUGCC
Output: no (0)

Task: // next record UACGUAGGUGGUUUUCCCCAGAUAGUGCUAAGGGGGCCUGGAAGUUUGGACUGGGCAGAGCUCAACACAGCGUGGCAAAGUGGCUGUGGCUAGACUGCCUCUCCGGAUUCCUCGUCACUCAGCAGGGCAUCUCUGAGAGAAAUGCC
Output: yes (1)

Task: // next record UACGUAGGUGGUUUUCCCCUGAUAGAGCUAAGGGGGCCUGGAAGUUUGGACUGGGCAGAGCUCAACACAGCGUGGCAAAGUGGCUGUGGCUAGACUGCCUCUCUGGAUUACUCGUCACUCAGCAGGGCAUCUCUGAGAGAAAUGCC
Output: yes (1)
